Overview of recorded PBM binding z-score for various sequences
Tested on: VDR homodimer (NR concentration 270 nM)
Protocol Summary: PBM binding z-score (relative to random genomic background probes); higher = stronger binding; sequences stand for … in GC…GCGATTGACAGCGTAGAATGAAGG
Test Readout: PBM binding z-score

INSERT INTO results (residues, test_readout, val) VALUES
  ('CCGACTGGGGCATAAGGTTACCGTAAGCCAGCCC', 'PBM binding z-score', -0.402),
  ('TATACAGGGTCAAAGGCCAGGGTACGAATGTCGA', 'PBM binding z-score', 3.31),
  ('ACATGTAGGTTACATCCGGGTCATTCAGGCTATG', 'PBM binding z-score', 3.73),
  ('CGTCAAAGTTCAACGTAACGTAACAGAAAGCAGC', 'PBM binding z-score', 3.03),
  ('CAAACTAGGTCATTGACAGGACAGTGAATAGTAA', 'PBM binding z-score', 1.51),
  ('CCTAGTTGGTCAAGGTCACAAACGCTATAGGTAC', 'PBM binding z-score', 3.9),
  ('CTCGAAAGGTCGTGCTCAGGTGGGTATACCAAAC', 'PBM binding z-score', 1.08);

----------
Test system: PPARg:RXRa (NR concentration 180 nM, RXRa partner concentration 90 nM)
Protocol Summary: PBM binding z-score (relative to random genomic background probes); higher = stronger binding; sequences stand for … in GC…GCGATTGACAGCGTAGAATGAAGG
Overview of recorded PBM binding z-score for various sequences
Test Readout: PBM binding z-score

INSERT INTO measurements (residues, study_system, test_readout, val) VALUES
  ('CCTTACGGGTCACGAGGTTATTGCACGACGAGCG', 'PPARg:RXRa (NR concentration 180 nM, RXRa partner concentration 90 nM)', 'PBM binding z-score', 7.34),
  ('GCAGACAGGTGAAACTCAGGTAACTCAGGGTGGC', 'PPARg:RXRa (NR concentration 180 nM, RXRa partner concentration 90 nM)', 'PBM binding z-score', 0.585),
  ('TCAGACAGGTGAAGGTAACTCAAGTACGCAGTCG', 'PPARg:RXRa (NR concentration 180 nM, RXRa partner concentration 90 nM)', 'PBM binding z-score', 0.828),
  ('GATGCAGGGTCAAGGCCAGAGTACGCGTATTGAT', 'PPARg:RXRa (NR concentration 180 nM, RXRa partner concentration 90 nM)', 'PBM binding z-score', 5.22),
  ('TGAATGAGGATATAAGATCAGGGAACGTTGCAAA', 'PPARg:RXRa (NR concentration 180 nM, RXRa partner concentration 90 nM)', 'PBM binding z-score', 0.623),
  ('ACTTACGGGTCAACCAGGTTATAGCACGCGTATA', 'PPARg:RXRa (NR concentration 180 nM, RXRa partner concentration 90 nM)', 'PBM binding z-score', 6),
  ('CCTACTGGGGCAAAAAGGTCATTGATGCCGATAA', 'PPARg:RXRa (NR concentration 180 nM, RXRa partner concentration 90 nM)', 'PBM binding z-score', 4.68),
  ('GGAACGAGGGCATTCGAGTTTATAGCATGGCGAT', 'PPARg:RXRa (NR concentration 180 nM, RXRa partner concentration 90 nM)', 'PBM binding z-score', 0.982),
  ('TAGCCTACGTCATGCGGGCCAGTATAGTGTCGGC', 'PPARg:RXRa (NR concentration 180 nM, RXRa partner concentration 90 nM)', 'PBM binding z-score', 0.156),
  ('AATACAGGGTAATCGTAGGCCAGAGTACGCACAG', 'PPARg:RXRa (NR concentration 180 nM, RXRa partner concentration 90 nM)', 'PBM binding z-score', 1.25),
  ('CCTTACGGGTCAAGGTTCTAGCACGGGTGGTACG', 'PPARg:RXRa (NR concentration 180 nM, RXRa partner concentration 90 nM)', 'PBM binding z-score', 4.7),
  ('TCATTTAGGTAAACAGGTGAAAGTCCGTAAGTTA', 'PPARg:RXRa (NR concentration 180 nM, RXRa partner concentration 90 nM)', 'PBM binding z-score', 2.24),
  ('TAACCAAGGTGAGCTGAGGTCGTTGATCCAACTC', 'PPARg:RXRa (NR concentration 180 nM, RXRa partner concentration 90 nM)', 'PBM binding z-score', 0.206),
  ('CCTATTAGTTGACCATAAGGGGAACCGAAGCTCG', 'PPARg:RXRa (NR concentration 180 nM, RXRa partner concentration 90 nM)', 'PBM binding z-score', 0.299),
  ('CCAGACAGGTGAAAGATAACTCAGTCTGGTACGC', 'PPARg:RXRa (NR concentration 180 nM, RXRa partner concentration 90 nM)', 'PBM binding z-score', 1.27);
